Molecular target: Amine oxidase [flavin-containing] B (Homo sapiens, UniProt P27338)
Sequence (P27338 whole entry): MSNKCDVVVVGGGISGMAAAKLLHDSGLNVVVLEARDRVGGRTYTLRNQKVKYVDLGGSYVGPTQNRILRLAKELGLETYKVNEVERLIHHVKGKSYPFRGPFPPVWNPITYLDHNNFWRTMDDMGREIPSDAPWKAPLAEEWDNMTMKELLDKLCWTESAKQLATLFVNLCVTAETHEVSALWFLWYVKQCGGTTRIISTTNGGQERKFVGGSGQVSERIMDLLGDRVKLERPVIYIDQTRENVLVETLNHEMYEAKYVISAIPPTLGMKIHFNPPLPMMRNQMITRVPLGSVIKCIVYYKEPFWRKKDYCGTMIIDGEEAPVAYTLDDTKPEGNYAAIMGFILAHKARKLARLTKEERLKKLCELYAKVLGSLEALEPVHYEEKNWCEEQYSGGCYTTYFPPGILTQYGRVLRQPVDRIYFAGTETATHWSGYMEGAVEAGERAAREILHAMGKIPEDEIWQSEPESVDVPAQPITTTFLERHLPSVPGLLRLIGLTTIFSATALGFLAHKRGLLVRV
Experiment: Inhibition of human recombinant MAO-B expressed in insect cells at 1 uM using p-tyramine as substrate preincubated for 30 mins followed by substrate addition measured for 15 mins by resorufin dye-based fluorescence assay relative to control
Settings: 0.25 h, read-out: INH
outcome_measure: inhibition at 1 µM (%)

[
  {
    "compound": "O=C1Nc2ccc(OCc3cccc(Cl)c3)cc2C1=O",
    "display_unit": "%",
    "inhibition at 1 µM": 93
  },
  {
    "compound": "O=C1Nc2ccc(OCCc3ccc(F)cc3)cc2C1=O",
    "display_unit": "%",
    "inhibition at 1 µM": 68.7
  },
  {
    "compound": "Cn1c(=O)[nH]c2ccc(OCc3ccc(Cl)cc3)cc21",
    "display_unit": "%",
    "inhibition at 1 µM": 8.29
  }
]

(1) Cn1c(=O)[nH]c2ccc(OCc3ccc(Cl)c(Cl)c3)cc21
(2) CC1(C)C(=O)Nc2ccc(OCc3cccc(Cl)c3)cc21
Param pair: 1 , 2 . Output: the one whose inhibition at 1 µM is numerically greater. Answer by stating the label of the chosen item.
1

(I) CC(C)C1C(=O)Nc2ccc(OCc3cccc(F)c3)cc21 (centres undefined)
(II) CCn1c(=O)[nH]c2ccc(OCc3ccc(C(F)(F)F)cc3)cc21
(III) O=C1Nc2ccc(OCc3ccc(Cl)c(Cl)c3)cc2C1=O
(IV) Cn1c(=O)[nH]c2ccc(OCc3cccc(F)c3)cc21
Hi! Can you put these in order of inhibition at 1 µM, lowest number first? Provide the ranking by listing each label in its place in the requested order.
IV, I, II, III

(a) CCn1c(=O)[nH]c2ccc(OCCOc3ccc(C(C)C)cc3)cc21
(b) CC1(C)C(=O)Nc2ccc(OCc3ccc(Cl)c(Cl)c3)cc21
From the items above, decide which of a and b has the lower inhibition at 1 µM reading. Answer by stating the label of the chosen item.
a
(a: 19%, b: 28.8%)

(1) O=C1Cc2cc(OCc3ccc(Cl)c(Cl)c3)ccc2N1
(2) O=C1Cc2cc(OCCc3ccc(F)cc3)ccc2N1
From the items above, decide which of 1 and 2 has the lower inhibition at 1 µM reading. Answer by stating the label of the chosen item.
1

----------
Organism: Homo sapiens
Assay: Selectivity index, ratio of IC50 for human recombinant MAO-A expressed in insect cells to IC50 for human recombinant MAO-B expressed in insect cells
outcome_measure: Ratio IC50

[
  {
    "molecule": "CC1(C)C(=O)Nc2ccc(OCc3cccc(Cl)c3)cc21",
    "observed": "> 1.79"
  },
  {
    "molecule": "CCn1c(=O)[nH]c2ccc(OCCOc3ccc(C(C)C)cc3)cc21",
    "observed": "> 1.8"
  },
  {
    "molecule": "CC(C)C1C(=O)Nc2ccc(OCc3cccc(F)c3)cc21 (stereo not drawn)",
    "observed": "> 1.62"
  },
  {
    "molecule": "CCn1c(=O)[nH]c2ccc(OCc3ccc(C(F)(F)F)cc3)cc21",
    "observed": "> 2.71"
  },
  {
    "molecule": "Cn1c(=O)[nH]c2cc(OCc3cccc(Cl)c3)ccc21",
    "observed": "> 14.6"
  },
  {
    "molecule": "CC(C)c1ccc(OCCOc2ccc3[nH]c(=O)n(C(C)C)c3c2)cc1",
    "observed": "> 7.49"
  },
  {
    "molecule": "O=C1Cc2cc(OCCc3ccc(F)cc3)ccc2N1",
    "observed": "> 2.63"
  },
  {
    "molecule": "O=C1Nc2ccc(OCc3ccc(Cl)c(Cl)c3)cc2C1=O",
    "observed": 38900
  }
]

So what's the measured Ratio IC50 for this one? `O=C1Cc2cc(OCc3ccc(F)cc3)ccc2N1`
> 20.1

So what's the measured Ratio IC50 for this one? `Cn1c(=O)[nH]c2ccc(OCc3ccc(Cl)c(Cl)c3)cc21`
> 65

So what's the measured Ratio IC50 for this one? `Cn1c(=O)[nH]c2ccc(OCCCc3ccccc3)cc21`
> 8.39

So what's the measured Ratio IC50 for this one? `Cn1c(=O)[nH]c2ccc(OCc3ccc(Cl)cc3)cc21`
> 8.87

So what's the measured Ratio IC50 for this one? `O=C1Nc2ccc(OCc3ccc(F)cc3)cc2C1=O`
3210

So what's the measured Ratio IC50 for this one? `O=C1Nc2ccc(OCCc3ccc(F)cc3)cc2C1=O`
> 4900

So what's the measured Ratio IC50 for this one? `CCn1c(=O)[nH]c2ccc(OCCOc3cccc(F)c3)cc21`
> 2.62

So what's the measured Ratio IC50 for this one? `O=C1Nc2ccc(OCc3cccc(Cl)c3)cc2C1=O`
6760

So what's the measured Ratio IC50 for this one? `O=C1Cc2cc(OCc3ccc(Cl)c(Cl)c3)ccc2N1`
> 29.1

So what's the measured Ratio IC50 for this one? `CC1(C)C(=O)Nc2ccc(OCc3ccc(Cl)c(Cl)c3)cc21`
> 3.78

----------
The entries below come with measured pIC50 values attached.
Molecular target: UniProt:P21397
Sequence (P21397 whole entry): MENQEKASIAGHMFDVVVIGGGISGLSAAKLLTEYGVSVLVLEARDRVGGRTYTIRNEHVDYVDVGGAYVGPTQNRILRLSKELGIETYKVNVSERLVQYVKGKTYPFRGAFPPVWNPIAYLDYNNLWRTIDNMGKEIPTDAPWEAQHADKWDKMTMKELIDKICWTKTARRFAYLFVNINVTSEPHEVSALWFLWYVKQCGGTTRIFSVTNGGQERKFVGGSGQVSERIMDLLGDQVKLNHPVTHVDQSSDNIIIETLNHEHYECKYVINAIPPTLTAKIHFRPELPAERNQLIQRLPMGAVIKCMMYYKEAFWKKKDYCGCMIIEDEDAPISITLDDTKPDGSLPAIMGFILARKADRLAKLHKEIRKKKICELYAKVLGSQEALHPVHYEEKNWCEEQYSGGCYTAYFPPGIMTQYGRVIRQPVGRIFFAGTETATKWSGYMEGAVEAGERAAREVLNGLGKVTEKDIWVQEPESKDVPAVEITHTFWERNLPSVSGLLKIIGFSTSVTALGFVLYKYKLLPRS
Assay: Inhibition of human recombinant MAO-A expressed in insect cells using p-tyramine as substrate preincubated for 30 mins followed by substrate addition measured for 15 mins by resorufin dye-based fluorescence assay
pIC50: −log10 of the molar value.

Reference set (3 entries):
[
  {
    "compound": "Cn1c(=O)[nH]c2ccc(OCc3ccc(Cl)c(Cl)c3)cc21",
    "outcome_measure": "pIC50",
    "observed": "< 3.30"
  },
  {
    "compound": "O=C1Cc2cc(OCc3ccc(Cl)c(Cl)c3)ccc2N1",
    "outcome_measure": "pIC50",
    "observed": "< 3.30"
  },
  {
    "compound": "CCn1c(=O)[nH]c2ccc(OCCOc3ccc(C(C)C)cc3)cc21",
    "outcome_measure": "pIC50",
    "observed": "< 3.30"
  }
]

So what's the measured pIC50 for this one? `O=C1Cc2cc(OCc3ccc(F)cc3)ccc2N1`
< 3.30

So what's the measured pIC50 for this one? `Cn1c(=O)[nH]c2cc(OCc3cccc(Cl)c3)ccc21`
< 3.30

So what's the measured pIC50 for this one? `O=C1Nc2ccc(OCc3ccc(F)cc3)cc2C1=O`
3.63

So what's the measured pIC50 for this one? `O=C1Nc2ccc(OCc3ccc(Cl)c(Cl)c3)cc2C1=O`
3.93

So what's the measured pIC50 for this one? `CC(C)c1ccc(OCCOc2ccc3[nH]c(=O)n(C(C)C)c3c2)cc1`
< 3.30

So what's the measured pIC50 for this one? CC(C)C1C(=O)Nc2ccc(OCc3cccc(F)c3)cc21 (stereo not drawn)
< 3.30

----------
Biological target: Amine oxidase [flavin-containing] B (Homo sapiens, UniProt P27338)
Assay: Inhibition of human recombinant MAO-B expressed in insect cells using p-tyramine as substrate preincubated for 30 mins followed by substrate addition measured for 15 mins by resorufin dye-based fluorescence assay
outcome_measure: IC50 (µM)

Reference set (3 entries):
[
  {
    "compound": "CC(C)c1ccc(OCCOc2ccc3[nH]c(=O)n(C(C)C)c3c2)cc1",
    "IC50 (µM)": 66.7
  },
  {
    "compound": "CC1(C)C(=O)Nc2ccc(OCc3cccc(Cl)c3)cc21",
    "IC50 (µM)": 279
  },
  {
    "compound": "O=C1Nc2ccc(OCc3cccc(Cl)c3)cc2C1=O",
    "IC50 (µM)": 0.046
  }
]

(a) O=C1Nc2ccc(OCc3ccc(Cl)c(Cl)c3)cc2C1=O
(b) O=C1Nc2ccc(OCc3ccc(F)cc3)cc2C1=O
From the items above, decide which of a and b has the lower IC50 reading. Answer by stating the label of the chosen item.
a
(a: 0.003 µM, b: 0.073 µM)

(1) CCn1c(=O)[nH]c2ccc(OCCOc3ccc(C(C)C)cc3)cc21
(2) CCn1c(=O)[nH]c2ccc(OCCOc3cccc(F)c3)cc21
(3) CC1(C)C(=O)Nc2ccc(OCc3ccc(Cl)c(Cl)c3)cc21
Hi! Can you put these in order of IC50, lowest number first? Provide the ranking by listing each label in its place in the requested order.
3, 2, 1
(3: 132 µM, 2: 190 µM, 1: 278 µM)

(a) CC(C)C1C(=O)Nc2ccc(OCc3cccc(F)c3)cc21 (configuration not stated)
(b) O=C1Cc2cc(OCc3ccc(Cl)c(Cl)c3)ccc2N1
(c) O=C1Cc2cc(OCCc3ccc(F)cc3)ccc2N1
Hi! Can you put these in order of IC50, lowest number first? Provide the ranking by listing each label in its place in the requested order.
b, c, a

Data provenance: ChEMBL document CHEMBL4400552
